target: Insulin-like growth factor 1 receptor (Homo sapiens); assay: Inhibition of IGF1R
Sequence (P08069 31-736 limits assumed): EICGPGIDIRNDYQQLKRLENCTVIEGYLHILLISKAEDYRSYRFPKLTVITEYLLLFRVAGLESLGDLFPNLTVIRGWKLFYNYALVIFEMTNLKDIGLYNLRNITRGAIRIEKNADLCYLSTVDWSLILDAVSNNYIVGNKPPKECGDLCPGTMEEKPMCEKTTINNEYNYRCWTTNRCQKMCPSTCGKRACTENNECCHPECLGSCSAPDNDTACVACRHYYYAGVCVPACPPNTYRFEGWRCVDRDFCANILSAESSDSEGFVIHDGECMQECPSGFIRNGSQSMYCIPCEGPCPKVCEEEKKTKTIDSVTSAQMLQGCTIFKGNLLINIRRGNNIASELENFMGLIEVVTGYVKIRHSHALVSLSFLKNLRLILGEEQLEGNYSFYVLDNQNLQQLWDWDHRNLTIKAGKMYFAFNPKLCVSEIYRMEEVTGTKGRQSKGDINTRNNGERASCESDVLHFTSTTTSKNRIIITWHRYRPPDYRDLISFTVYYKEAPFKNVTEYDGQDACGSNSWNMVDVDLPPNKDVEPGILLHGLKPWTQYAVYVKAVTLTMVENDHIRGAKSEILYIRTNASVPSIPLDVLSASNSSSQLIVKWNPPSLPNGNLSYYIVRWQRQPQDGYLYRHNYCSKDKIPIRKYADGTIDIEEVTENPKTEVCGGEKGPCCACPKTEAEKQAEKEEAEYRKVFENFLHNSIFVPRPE
Sequence (P08069 741-1367 limits assumed): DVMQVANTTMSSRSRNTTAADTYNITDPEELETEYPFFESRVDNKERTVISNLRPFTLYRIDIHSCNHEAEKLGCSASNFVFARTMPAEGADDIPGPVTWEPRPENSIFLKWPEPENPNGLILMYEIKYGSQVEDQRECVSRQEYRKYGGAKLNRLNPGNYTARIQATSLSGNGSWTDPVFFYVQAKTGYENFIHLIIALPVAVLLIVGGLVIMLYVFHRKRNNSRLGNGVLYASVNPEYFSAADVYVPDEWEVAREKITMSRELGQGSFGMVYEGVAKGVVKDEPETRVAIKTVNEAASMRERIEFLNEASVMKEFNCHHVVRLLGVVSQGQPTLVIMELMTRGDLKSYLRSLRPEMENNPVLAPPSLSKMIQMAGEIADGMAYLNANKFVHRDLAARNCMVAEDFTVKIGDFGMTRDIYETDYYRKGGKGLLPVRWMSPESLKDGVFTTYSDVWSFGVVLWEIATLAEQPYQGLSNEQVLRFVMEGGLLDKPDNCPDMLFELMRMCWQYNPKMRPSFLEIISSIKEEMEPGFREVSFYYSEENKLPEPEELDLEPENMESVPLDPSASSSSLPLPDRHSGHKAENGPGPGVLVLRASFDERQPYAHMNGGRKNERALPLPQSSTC
pIC50: −log10 of the molar value.
experimental endpoint: pIC50

> print(dat)
                                   compound  experimental.endpoint  endpoint.result
1  O=C(Nc1ccc(F)nc1)C1=C(c2nc(Nc3cc(C4CC4)[nH]n3)c3cccn3n2)CCC1                  pIC50             7.49
2  O=C(Nc1ccc(F)nc1)[C@@H]1CCCN1c1nc(Nc2cc(C3CC3)[nH]n2)c2cccn2n1                  pIC50             8.57
3  O=C(Nc1ccc(F)nc1)[C@@H]1CCC[C@H]1c1nc(Nc2cc(C3CC3)n[nH]2)c2cccn2n1 (stereo in doubt; (+)-25)                  pIC50             8.01
4  O=C(c1ccc(F)nc1)N1CCC[C@@H]1c1nc(Nc2cc(C3CC3)[nH]n2)c2cccn2n1                  pIC50             5.08

P = O=C1CC[C@@H](c2nc(Nc3cc(C4CC4)[nH]n3)c3cccn3n2)N1C(=O)c1ccc(F)nc1
Q = O=C(Nc1ccc(F)nc1)[C@@H]1CCC[C@H]1c1nc(Nc2cc(C3CC3)n[nH]2)c2cccn2n1 (stereo in doubt; (-)-25)
Request: Which value of pIC50 is numerically greater: that of P or that of Q ? Reply briefly: the label of your chosen item.
Result: P
(P: 7.96, Q: 6.72)

Values from ChEMBL document CHEMBL1221304
